tested on: N. gonorrhoeae 200; assay: MIC/MBC against N. gonorrhoeae clinical isolate 200; format: cell-based; conditions: Neisseria gonorrhoeae
Each entry below lists one item and its recorded MIC value.
Value expressed in µg/mL; do not type the unit.

Worked cases, MIC given:
O=C(Nc1nnc(-c2ccc(C(F)(F)F)cc2)o1)c1ccc(OC(F)(F)F)c(F)c1    2
CN(C)[C@@H]1C(O)=C(C(N)=O)C(=O)[C@@]2(O)C(O)=C3C(=O)c4c(O)cccc4[C@@](C)(O)[C@H]3C[C@@H]12 [Tetracycline, tetracycline, reference compound]    2
O=C(Nc1nnc(-c2cccc(F)c2)o1)c1ccc(OC(F)(F)F)cc1    0.06

Request: Request the reported MIC associated with CC[C@H]1OC(=O)[C@H](C)[C@@H](O[C@H]2C[C@@](C)(OC)[C@@H](O)[C@H](C)O2)[C@H](C)[C@@H](O[C@@H]2O[C@H](C)C[C@H](N(C)C)[C@H]2O)[C@](C)(O)C[C@@H](C)CN(C)[C@H](C)[C@@H](O)[C@]1(C)O [Azithromycin, azithromycin, reference compound]
Response: 0.5

Request: Ok, now `O=C(Nc1nnc(-c2ccc(Cl)s2)o1)c1ccc(OC(F)(F)F)cc1`
Response: 0.125

----------
experiment: Caco-2 bidirectional permeability assay; assay type: in vitro ADME, human; settings: human, Caco-2; basolateral to apical
ASSAY READOUT: Papp B→A (×10⁻⁶ cm/s)
Value expressed in ×10⁻⁶ cm/s; do not type the unit.

Request: Request the reported Papp B→A associated with O=C(Nc1nnc(-c2ccc(Cl)s2)o1)c1ccc(OC(F)(F)F)cc1 [HSGN-238]
Response: 32.9

----------
Each entry below lists one item and its recorded MIC value.
test system: N. gonorrhoeae WHO L; assay: MIC/MBC against N. gonorrhoeae WHO L reference strain; assay type: cell-based; settings: Neisseria gonorrhoeae
Value expressed in µg/mL; do not type the unit.

CN(C)[C@@H]1C(O)=C(C(N)=O)C(=O)[C@@]2(O)C(O)=C3C(=O)c4c(O)cccc4[C@@](C)(O)[C@H]3C[C@@H]12 [Tetracycline, tetracycline, reference compound]    0.5
O=C(Nc1nnc(-c2ccc(C(F)(F)F)cc2)o1)c1ccc(OC(F)(F)F)c(F)c1    1
O=C(Nc1nnc(-c2cccc(F)c2)o1)c1ccc(OC(F)(F)F)cc1    0.06
CC[C@H]1OC(=O)[C@H](C)[C@@H](O[C@H]2C[C@@](C)(OC)[C@@H](O)[C@H](C)O2)[C@H](C)[C@@H](O[C@@H]2O[C@H](C)C[C@H](N(C)C)[C@H]2O)[C@](C)(O)C[C@@H](C)CN(C)[C@H](C)[C@@H](O)[C@]1(C)O [Azithromycin, azithromycin, reference compound]    0.5

Please look at the following molecule next.
Request: Request the reported MIC associated with `O=C(Nc1nnc(-c2ccc(Cl)s2)o1)c1ccc(OC(F)(F)F)cc1`
Response: 0.06

----------
tested on: VRE. faecalisATCC 51575; test: MIC/MBC (CLSI broth microdilution) against VRE faecalis ATCC 51575; assay type: cell-based; conditions: Enterococcus; VRE faecalis ATCC 51575; read-out: MBC
Each entry below lists one item and its recorded MBC value.
Value expressed in µg/mL; do not type the unit.

CC(=O)NC[C@H]1CN(c2ccc(N3CCOCC3)c(F)c2)C(=O)O1 [Linezolid, linezolid, reference compound]    64

Please look at the following molecule next.
Request: Request the reported MBC associated with `O=C(Nc1nnc(-c2ccc(Cl)s2)o1)c1ccc(OC(F)(F)F)cc1`
Response: 32
